Let's look at some compounds and their measured CC50 at 48 h.
Assay: HEK 293 kidney cell viability / cytotoxicity assay (Alamar Blue)
Assay type: cell-based
Conditions: human; Table 2; 48 h incubation, Alamar Blue; read-out: HEK 293 Kidney Cell Viability CC50
Give just the number in µM; leave the unit off.

For orientation, consider the following solved cases.
# compound, reported.measurement
records = [
    ("Cc1cc(C(C#N)c2ccc(Cl)cc2)c(Cl)cc1NC(=O)c1ccc(F)cc1 (centres unmarked) [Compound 81]", 78),
    ("Cc1cc(C(C#N)c2ccc(Cl)cc2)c(Cl)cc1NC(=O)c1cc(Br)cc(Br)c1O (centres unmarked) [Compound 46]", 58),
    ("Cc1cc(C(C#N)c2ccc(Cl)cc2)c(Cl)cc1NC(=O)c1cccc(Br)c1O (centres unmarked) [Compound 48]", 43),
    ("Cc1ccc(O)c(C(=O)Nc2cc(Cl)c(C(C#N)c3ccc(Cl)cc3)cc2C)c1 (centres unmarked) [Compound 60]", 40),
    ("Cc1cc(C(C#N)c2ccc(Cl)cc2)c(Cl)cc1NC(=O)c1ccccc1O (centres unmarked) [Compound 64]", 26),
]

Moving on to another compound below.
Recorded CC50 at 48 h of Cc1cc(C(C#N)c2ccc(Cl)cc2)c(Cl)cc1NC(=O)c1ccccc1 (centres unmarked) [Compound 82] , please.
47
